Where do the numbers come from? From paper PMC9995496.

- Test system: PRKACA-PRKAR2A interaction (SmBiT-PRKACA / LgBiT-PRKAR2A), protein kinase A
- Set-up: NanoLuc complementation counter-screen in cell extract, PRKACA with PRKAR2A, loss of luminescence, detects NanoLuc interference
- reported_conditions: counter-screen for NanoLuc interference; 0.5 h, 20 µM; inhibitor
Counter-ions that a name gives are not always drawn.
assay_metric: Inh (PKA)

compound: c1cnc2cc3c(cc2n1)[C@@H]1CNC[C@H]3C1 [UM0141886:01, Varenicline Tartrate]
Inh (PKA): 1.343%

compound: C/C=C1\NC(=O)[C@H]2CSSCC/C=C/[C@H](CC(=O)N[C@H](C(C)C)C(=O)N2)OC(=O)[C@H](C(C)C)NC1=O [UM0141931:01, Romidepsin (FK228, depsipeptide)]
Inh (PKA): 2.202%

compound: COc1cc2ncnc(Nc3cccc(Cl)c3F)c2cc1OC(=O)N1CCN(C)C[C@H]1C
Inh (PKA): 7.884%

compound: C/C(O)=C(\C#N)C(=O)Nc1cc(Br)ccc1Br
Inh (PKA): 54.46%

compound: CCc1cccc2c3c([nH]c12)C(CC)(CC(=O)O)OCC3 (stereo not drawn)
Inh (PKA): 0.3149%

Name the reported Inh (PKA) value associated with the compound COc1cc(NC(=O)c2ccc(-c3ccc(Cl)cc3)o2)cc(OC)c1
40.39%

----------
Here, each record is paired with measured Inh (PKA) data.
- System: PRKACA-PRKAR2A interaction (SmBiT-PRKACA / LgBiT-PRKAR2A), protein kinase A
- Set-up: NanoLuc complementation counter-screen in cell extract, PRKACA with PRKAR2A, loss of luminescence, detects NanoLuc interference
- reported_conditions: counter-screen for NanoLuc interference; 0.5 h, 20 µM; inhibitor
Counter-ions that a name gives are not always drawn.
Report as a plain number; the unit % is understood.

compound: C[C@H](NCc1ccc(OCc2cccc(F)c2)cc1)C(N)=O [UM0141812:01, Safinamide Mesylate]
unit_annotation: %
readout_value: 2.51

Please give the measured Inh (PKA) for this compound: O=c1ccc2cc(O)c(O)cc2o1 [UM0132846:02, 6,7-Dihydroxycoumarin]
4.392

Any idea what its Inh (PKA) is? The compound is CNC(=O)c1c(F)cccc1Nc1nc(Nc2cc3c(ccn3C(=O)CN(C)C)cc2OC)nc2[nH]ccc12 [UM0142043:01, GSK1838705A]
3.955

Inh (PKA) for CCN(c1cc(-c2ccc(CN3CCOCC3)cc2)cc(C(=O)NCc2c(C)cc(C)[nH]c2=O)c1C)C1CCOCC1 ?
4.351

Entry CNC(=O)c1cc(Oc2ccc(NC(=O)Nc3cc(C(C)(C)C)nn3-c3ccc4ncccc4c3)c(F)c2)ccn1 [UM0142239:01, DCC-2036 (Rebastinib)] has what Inh (PKA)?
12.64

Given Cc1ccc(S(=O)(=O)Cc2nc(-c3ccc(C(=O)NCc4cccnc4)cc3)oc2C)cc1 , state its recorded Inh (PKA).
1.65

Given CC(=O)N1CCN(c2ccc(OC[C@@H]3CO[C@@](Cn4ccnc4)(c4ccc(Cl)cc4Cl)O3)cc2)CC1 (racemic) , state its recorded Inh (PKA).
5.554

Report Inh (PKA) for O=C1c2ccccc2C(=O)c2oc(-c3ccccc3)nc21 please.
4.073

Consider the compound shown here: Cc1nc(N)sc1-c1ccnc(Nc2ccc(N3CCOCC3)cc2)n1 What is its recorded Inh (PKA)?
23.62
